TGT: human ether-à-go-go-related gene (hERG) potassium channel (human, UniProt Q12809)
Sequence (Q12809 whole entry, looked up): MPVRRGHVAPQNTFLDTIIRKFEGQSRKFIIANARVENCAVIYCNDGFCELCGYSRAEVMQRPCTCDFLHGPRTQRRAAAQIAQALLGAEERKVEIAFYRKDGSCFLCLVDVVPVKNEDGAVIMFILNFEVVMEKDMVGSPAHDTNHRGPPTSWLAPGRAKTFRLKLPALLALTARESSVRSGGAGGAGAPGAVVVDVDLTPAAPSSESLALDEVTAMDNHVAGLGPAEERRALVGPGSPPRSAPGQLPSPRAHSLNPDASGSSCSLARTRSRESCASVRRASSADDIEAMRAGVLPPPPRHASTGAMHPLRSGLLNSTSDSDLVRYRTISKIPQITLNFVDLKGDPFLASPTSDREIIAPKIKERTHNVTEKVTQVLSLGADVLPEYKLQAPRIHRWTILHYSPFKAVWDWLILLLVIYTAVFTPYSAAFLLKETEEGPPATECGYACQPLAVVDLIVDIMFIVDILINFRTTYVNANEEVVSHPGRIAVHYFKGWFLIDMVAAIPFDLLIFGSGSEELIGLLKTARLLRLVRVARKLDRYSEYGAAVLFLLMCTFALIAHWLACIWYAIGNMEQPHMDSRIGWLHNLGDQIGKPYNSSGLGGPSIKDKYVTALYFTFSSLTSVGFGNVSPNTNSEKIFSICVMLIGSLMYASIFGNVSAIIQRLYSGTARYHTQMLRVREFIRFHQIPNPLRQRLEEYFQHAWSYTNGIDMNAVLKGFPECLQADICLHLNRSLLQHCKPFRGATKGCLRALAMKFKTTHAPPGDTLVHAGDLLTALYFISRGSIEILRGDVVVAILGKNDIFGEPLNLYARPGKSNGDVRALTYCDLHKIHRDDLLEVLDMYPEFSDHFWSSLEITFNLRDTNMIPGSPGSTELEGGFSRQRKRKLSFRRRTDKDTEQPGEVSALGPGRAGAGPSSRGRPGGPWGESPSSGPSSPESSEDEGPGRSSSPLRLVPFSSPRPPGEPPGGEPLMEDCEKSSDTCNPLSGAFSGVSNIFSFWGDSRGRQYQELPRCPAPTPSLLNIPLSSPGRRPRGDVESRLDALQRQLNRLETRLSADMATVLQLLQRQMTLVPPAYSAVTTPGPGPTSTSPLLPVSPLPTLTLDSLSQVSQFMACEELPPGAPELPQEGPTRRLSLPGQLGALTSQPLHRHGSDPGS
ASSAY_METHOD_TEXT: primary screen, population patch clamp on CHO cells stably expressing hERG; higher = less effect of the substance;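 further: peak tail current of the secondary pulse compared with the same well before compound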
Out of some 310,000 compounds screened, about 14,000 (4.5%) showed an effect of 50% or more. Effects have a minus sign here. This is one part of a sample in which strong results are shown more often than they occur.
In this section, each of the compounds is paired with its reported hERG current change (%, negative = inhibition) at 10uM.
MEASURED_ATTRIBUTE: hERG current change (%, negative = inhibition) at 10uM (%)

COMPOUND: O=C(NCc1ccco1)c1ccccc1Br
REPORTED_RESULT: 7.63
--
COMPOUND: O=C1N=C(N2CCc3ccccc3C2)S/C1=C\c1ccc(O)cc1
REPORTED_RESULT: -20.8
--
COMPOUND: Cc1cccc(NC(=O)C(=O)C2C(=O)Nc3ccccc32)c1 (stereo not shown)
REPORTED_RESULT: 4.05
--
COMPOUND: O=C(CSc1nnc(-c2cccs2)o1)NCc1ccco1
REPORTED_RESULT: -0.74
--
COMPOUND: Cc1ccc(C(=O)N/C(=C\C=C\c2ccccc2)C(=O)NCc2ccco2)cc1
REPORTED_RESULT: -50.3
--
COMPOUND: O=C(NCc1ccco1)/C(=C/C=C\c1ccccc1)NC(=O)c1ccc(Br)o1
REPORTED_RESULT: -59.6
--
COMPOUND: CCN1C(=O)c2cccc3c(S(=O)(=O)N(C(=O)c4ccncc4)c4ccc(OC)cc4)ccc1c23
REPORTED_RESULT: -7.51
--
COMPOUND: CCOc1cccc(N(C(=O)c2ccco2)C(C(=O)NC2CCCC2)c2cccnc2)c1 (stereo not shown)
REPORTED_RESULT: 0.854
--
COMPOUND: CCNC(=O)/C=C/c1ccccc1[N+](=O)[O-]
REPORTED_RESULT: 8.82
--
COMPOUND: COc1ccccc1N1CCN(C(=O)C2CC2)CC1
REPORTED_RESULT: 20
